experiment: Components of the Cytosolic LPS Sensing Pathway: Gene Identification via Genome-wide siRNA Screen; conditions: RAW264.7 macrophages, IL-1a HTRF, actives lie on both sides, screened at 100 nM (by protocol), cells primed 5 h with Pam3CSK4 first;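 note: robust z of the log signal after scaling to non-targeting control siRNA wells of the plate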
Among all 53,000 sequences or so, about 3,700 (7%) were called active. The full list was thinned out, with actives kept by preference.
Each entry gets false (0) if its z-score stays under 0.08, and true (1) if its z-score is 0.08 or above.

- residueString: "CGUGGAGCUACCAUAUAGGTT against Mob3b"
  assignedLabel: "true (1)"
- residueString: "GAUUCUCAUCUCAAUAAGCTT against Serpinb9g"
  assignedLabel: "true (1)"
- residueString: "GGUACAAUCCCAGAUUUGATT against Smc3"
  assignedLabel: "false (0)"
- residueString: "GCAACAUCCAGGCUUGCCUTT against Tmem107"
  assignedLabel: "false (0)"
- residueString: "GGAGAUCUAUUGGAUCCAUTT against Trim12a"
  assignedLabel: "true (1)"
- residueString: "GCACGGUCAAGUUUUGAUUTT against Prkaa2"
  assignedLabel: "false (0)"
- residueString: "GGCAUCUUCAUCAAGGAUUTT against Sf3a1"
  assignedLabel: "false (0)"
- residueString: "GGCAAUCAUUGGACUAUACTT against Nckap1"
  assignedLabel: "false (0)"
- residueString: "GGAGGAUACAGUGGAGGGATT against Fbxl19"
  assignedLabel: "true (1)"
- residueString: "GCUGCUUUAGCUUAGUUUUTT against Vwa7"
  assignedLabel: "true (1)"
- residueString: "GCUGGAAUAUCAUUUCCCATT against Pdpk1"
  assignedLabel: "false (0)"
- residueString: "CGAGAGUAGCUUGUUGCUGTT against Rhobtb3"
  assignedLabel: "true (1)"
- residueString: "GCACCUUGUCAACCAUUACTT against Kctd7"
  assignedLabel: "true (1)"
- residueString: "CCGUGGGAUUUAAGAUAUCTT against Rab34"
  assignedLabel: "false (0)"
- residueString: "GGCAGACAAGUUGUUAAAATT against Nusap1"
  assignedLabel: "false (0)"
- residueString: "GCGAGUUUAAUGUUUAUGCTT against Pdgfra"
  assignedLabel: "false (0)"
- residueString: "CGCUAUGAAACCUCACUAATT against E2f1"
  assignedLabel: "false (0)"
- residueString: "GGCUAAGGGUAACGUGCUGTT against Bri3"
  assignedLabel: "false (0)"
- residueString: "GCCCUCCUUAUAGCUUAAUTT against Asic3"
  assignedLabel: "false (0)"
- residueString: "GGAAACCAACUUCAGCCUGTT against Gfra1"
  assignedLabel: "false (0)"
- residueString: "GCACCUGAGAAGCUCAUUGTT against Chil5"
  assignedLabel: "false (0)"
- residueString: "GGAAGGUGAAGCCAGUUUCTT against Traf3ip2"
  assignedLabel: "true (1)"
- residueString: "GCUCACAACAUGAGAGUCATT against Atp6v0e"
  assignedLabel: "false (0)"
- residueString: "GGACAGUGAAGAGGAUUCCTT against Anapc15"
  assignedLabel: "false (0)"

###

test: Components of the Cytosolic LPS Sensing Pathway: Gene Identification via Genome-wide siRNA Screen; details: RAW264.7 macrophages, IL-1a HTRF, actives lie on both sides, screened at 100 nM (by protocol), cells primed 5 h with Pam3CSK4 first;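 note: robust z of the log signal after scaling to non-targeting control siRNA wells of the plate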
About 3,700 (7%) of roughly 53,000 sequences were called active. The full list was thinned out, with actives kept by preference.
Think of -0.6 as a floor: if z-score stands on it or above, it is Met; beneath it, Not met.

- residueString: "CCAUUAUUGGCCCAUGCUCTT against Babam1"
  assignedLabel: "Not met"
- residueString: "CCCGUGCUUCAAAUAGAGATT against Cavin3"
  assignedLabel: "Met"
- residueString: "GGAUGCUGACAACAUAUACTT against Plk3"
  assignedLabel: "Not met"
- residueString: "CCUACUCUGGUAAAACCUUTT against Immp1l"
  assignedLabel: "Met"
- residueString: "GCAAUUACCAGUAUGCUACTT against Tbx19"
  assignedLabel: "Met"
- residueString: "GGAAGGUAUCCACUGUGCATT against Nme6"
  assignedLabel: "Not met"
- residueString: "CGCCUUCCUUCAACACGCATT against 1700049L16Rik"
  assignedLabel: "Not met"
- residueString: "CGACCUACUCUACAGCAAATT against Brinp3"
  assignedLabel: "Met"
- residueString: "GGGCGGUUCAAAAGGUCAGTT against Cacnb1"
  assignedLabel: "Met"
- residueString: "CCGAUUUCCACAUCUGUCATT against Fam104a"
  assignedLabel: "Not met"
- residueString: "GGACCAUCCCUGUUUUAUATT against Ifrd2"
  assignedLabel: "Met"
- residueString: "GCCUUCUUAAGCUCUGAGCTT against Dhrs13"
  assignedLabel: "Not met"
- residueString: "UAUUCUAUCCGAACACCUUTT against Gm4884"
  assignedLabel: "Met"
- residueString: "GCAUCCCGACUACAAGUACTT against Sox21"
  assignedLabel: "Not met"
- residueString: "GCACCUAGCAUAGCAAUGGTT against Slc24a1"
  assignedLabel: "Met"
- residueString: "GGGACCAGAUAGAAAUUAUTT against Arhgef25"
  assignedLabel: "Met"
- residueString: "GGCUCUUCUCUCGUCCUUGTT against Nif3l1"
  assignedLabel: "Met"
- residueString: "GGCAAAUAGUUUCUUCAAUTT against Npnt"
  assignedLabel: "Met"
- residueString: "GGAGGAAAAUCAGACAGGATT against Olfr1419"
  assignedLabel: "Met"
- residueString: "CCGCACAAGAGGUAGAUACTT against Ddx5"
  assignedLabel: "Not met"
- residueString: "CCAGACUGAGAAGAUAUGATT against Meox2"
  assignedLabel: "Met"
- residueString: "GGAUCAAUGAUACAACUGATT against Il1r1"
  assignedLabel: "Not met"
- residueString: "GGCUUGCUUUGCUUCCCUUTT against Med28"
  assignedLabel: "Not met"
- residueString: "GGCCUUCAUGGAUUAUACCTT against Serpinb9"
  assignedLabel: "Met"

###

assay: Components of the Cytosolic LPS Sensing Pathway: Gene Identification via Genome-wide siRNA Screen; details: RAW264.7 macrophages, IL-1a HTRF, actives lie on both sides, screened at 100 nM (by protocol), cells primed 5 h with Pam3CSK4 first;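 note: robust z of the log signal after scaling to non-targeting control siRNA wells of the plate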
The whole screen tested about 53,000 sequences, of which about 3,700 (7%) were called active.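 Rule for the calls: active = gene knockdowns whose robust z-score for IL-1 alpha signal is at least 2 or at most -2, so actives lie on both sides; inactive = the rest.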 Only a selection was taken, and actives are over-represented in it overall.
Outcome codes: active, inactive

- residueString: "GGAGUUCAGGAAAAUUCUUTT against Fsd1l"
  assignedLabel: "inactive"
- residueString: "GCAAAGUGGAUAUAGUGUCTT against Gprin1"
  assignedLabel: "inactive"
- residueString: "GCUAACAAAUGUCAGCAUGTT against Popdc3"
  assignedLabel: "inactive"
- residueString: "GGAUGGAGUUCACAUUUUCTT against Utp11"
  assignedLabel: "inactive"
- residueString: "CCUGGACACGAUUUCAGAGTT against Rbm6"
  assignedLabel: "inactive"
- residueString: "GGCAAAGACAAGAAGCUGUTT against Drap1"
  assignedLabel: "inactive"
- residueString: "CCGGCUAUGAAGAUGAGUATT against Cox6a1"
  assignedLabel: "active"
- residueString: "GGUUUCAUUUUUCGAGGAGTT against Cit"
  assignedLabel: "inactive"
- residueString: "GGACAAAACGUGCAAUAUGTT against Pkdcc"
  assignedLabel: "inactive"
- residueString: "GGAGUGUUGGAUGCUACCATT against Ache"
  assignedLabel: "inactive"
- residueString: "GCUUUCUUAGCAUUAAAUCTT against Zkscan3"
  assignedLabel: "inactive"
- residueString: "CCACGGAGACAACUUAGUATT against Scfd2"
  assignedLabel: "inactive"

###

assay: Components of the Cytosolic LPS Sensing Pathway: Gene Identification via Genome-wide siRNA Screen; conditions: RAW264.7 macrophages, IL-1a HTRF, actives lie on both sides, screened at 100 nM (by protocol), cells primed 5 h with Pam3CSK4 first;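 note: robust z of the log signal after scaling to non-targeting control siRNA wells of the plate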
About 3,700 (7%) of roughly 53,000 sequences were called active. The entries come from a sample that favours actives as a whole.
# binarize z-score: threshold 0.2 inclusive, high side met, low side not met

- residueString: "CGACUCUUACCAACCUUUUTT against Lhx2"
  assignedLabel: "met"
- residueString: "GGACUGAGGAGAGCAAUAUTT against Cts6"
  assignedLabel: "not met"
- residueString: "GCGAGGAGAGUGUGUUUUCTT against Bop1"
  assignedLabel: "met"
- residueString: "GGUCUUCCUUGAACAUCAGTT against Fev"
  assignedLabel: "not met"
- residueString: "GGAGGUGAACAGAUCUCACTT against Fubp1"
  assignedLabel: "met"
- residueString: "GGAGAAACUAUGAUCUUUATT against Mmp13"
  assignedLabel: "not met"
- residueString: "GGAAUACUGAAUUUAAGGATT against Olfr1416"
  assignedLabel: "met"
- residueString: "CCAUAUGAGAAGAUGACACTT against Pdcl2"
  assignedLabel: "not met"
- residueString: "CCAGUUUAUCACAUAACCUTT against Wasl"
  assignedLabel: "not met"
- residueString: "GGGAAGUUUGGUUCUUUGGTT against Msn"
  assignedLabel: "met"
- residueString: "CCCAAUCCUGUCAAUAGUCTT against Gfpt1"
  assignedLabel: "not met"
- residueString: "UCUUACACUUCGUGUUCCATT against Gpr6"
  assignedLabel: "met"
- residueString: "GGAAAUCUUUGAGUUUGAATT against Clca1"
  assignedLabel: "not met"
- residueString: "GGAGAGAAAGAACUGGAAATT against Fam78a"
  assignedLabel: "met"
- residueString: "GCCCAUUGAUCCGGAGUAATT against Dusp28"
  assignedLabel: "met"
- residueString: "CCGUUCUGGCACAGAACAGTT against A830005F24Rik"
  assignedLabel: "met"
- residueString: "GGACUAUCUUUAUGAUGUGTT against Ush1c"
  assignedLabel: "not met"
- residueString: "GGAAUACAAACUGCUGUACTT against Urgcp"
  assignedLabel: "not met"
- residueString: "GGUCCAAUUACUGAAGGUUTT against Spaca7"
  assignedLabel: "met"
- residueString: "GGAGGUGCUAACCUAACAGTT against Ggh"
  assignedLabel: "not met"
- residueString: "GGCCUCCAAUAAAGCUCAGTT against Ttc28"
  assignedLabel: "not met"
- residueString: "GCGAGAUUCUUAAAGAAAUTT against Brdt"
  assignedLabel: "met"
- residueString: "GGAAAGCUUUCUUCACCUGTT against Olfr206"
  assignedLabel: "not met"
- residueString: "GGAUUUCCUGUUCUUUCUATT against Prmt5"
  assignedLabel: "not met"
